Biological target: Cellular tumor antigen p53 (Homo sapiens)
Experiment: Primary qHTS for small molecule compounds that upregulate eGFP-tagged delta133p53alpha (in N-terminal) cells. (AID 2060322);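 further: cells pre-induced with doxycycline then dosed without doxycycline; series mostly up to about 56 µM; 0% = DMSO vehicle and 100% = reference activator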
Settings: NCI-H358 eGFP-delta133p53alpha fluorescence, 24 h; stronger effect = higher value
Inconclusive results are not listed.
readout: activation (%)
Numbers only, in %.

Known activation results, listed for orientation:
- compound: "CCOC(=O)C(C#N)=C(c1ccccc1)c1ccccc1"
  readout.unit: "%"
  activation: -3.35
- compound: "CCCCCCCCCCCCCCCC(=O)O[C@H]1[C@@H](O)[C@@H](O)[C@@H]([C@H](NC(=O)[C@@H]2C[C@@H](CCC)CN2C)[C@H](C)Cl)O[C@@H]1SC"
  readout.unit: "%"
  activation: 17.9
- compound: "CN(CC1COCCO1)S(=O)(=O)Nc1ccc2ccc3ncc(-c4cnn(C)c4)cc3c(=O)c2c1 (centres undefined)"
  readout.unit: "%"
  activation: 0.893
- compound: "CC1=C2C3OC(=O)C(C)C3(O)CCC2(C)CCC1 (centres undefined)"
  readout.unit: "%"
  activation: 2.68
- compound: "Cc1c(NC(=O)c2cc(C(N)=O)nc3cc(F)ccc23)c(C(F)(F)F)nn1Cc1ccc(C#N)cc1"
  readout.unit: "%"
  activation: 14.3

Would you mind giving activation for every compound in the list below?
1. C[C@H](NC(c1cccc2[nH]c(=O)c(=O)[nH]c12)P(=O)(O)O)c1ccc(Br)cc1 (some centres undefined)
2. COc1ccc(-n2[nH]c(=O)c3[nH]c4cc(Cl)ccc4c(=O)c3c2=O)c(C)c1
3. CC(C)=CCC1C(=O)N(c2ccccc2)N(c2ccccc2)C1=O
4. Cc1ccc(NC(=O)c2ccc(CN3CCNCC3)cc2)cc1Nc1nccc(-c2cccnc2)n1

Completion:
[-12.3, 9, -15.3, -16.1]
